Task for the reader: assign each of the following compounds its reported EC50.
system.under.test: human prostacyclin (PGI2) receptor (Homo sapiens (Human))
Sequence (P43119 whole entry): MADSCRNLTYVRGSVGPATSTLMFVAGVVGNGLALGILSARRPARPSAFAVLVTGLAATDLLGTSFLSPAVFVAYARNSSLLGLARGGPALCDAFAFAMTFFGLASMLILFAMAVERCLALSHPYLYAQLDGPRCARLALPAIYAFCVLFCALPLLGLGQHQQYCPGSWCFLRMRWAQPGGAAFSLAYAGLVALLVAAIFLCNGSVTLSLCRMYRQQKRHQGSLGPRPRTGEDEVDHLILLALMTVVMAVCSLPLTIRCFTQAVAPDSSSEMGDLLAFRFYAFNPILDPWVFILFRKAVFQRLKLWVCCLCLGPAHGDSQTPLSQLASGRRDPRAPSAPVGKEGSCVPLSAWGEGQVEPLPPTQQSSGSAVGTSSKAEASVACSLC
assay.protocol: HTRF assay for direct cAMP measurement
Assay type: cell-based
test.parameters: recombinant CHO-K1 cells stably transfected with human prostacyclin receptor; cAMP increase
Give your result in nM as a bare value.

Enquiry: Provide measured EC50 on human prostacyclin (PGI2) receptor (Homo sapiens (Human)) for COc1ccc(N(C(=O)OC[C@H]2CC[C@H](COCC(=O)O)CC2)c2cccc(F)c2)cc1 please.
Return: 5.14

Enquiry: Please look at O=C(O)COC[C@H]1CC[C@H](CNC(=O)N(c2ccccc2)c2cccc(Cl)c2)CC1 and tell me its recorded EC50 on human prostacyclin (PGI2) receptor (Homo sapiens (Human)).
Return: 61.1

Enquiry: Provide EC50, system human prostacyclin (PGI2) receptor (Homo sapiens (Human)), entry Cc1ccc(N(C(=O)OC[C@H]2CC[C@H](COCC(=O)O)CC2)c2cccc(F)c2)s1
Return: 19.1

Enquiry: Report its EC50 with human prostacyclin (PGI2) receptor (Homo sapiens (Human)) as the test system: O=C(O)COC[C@H]1CC[C@@H](COC(=O)N(c2ccccc2)c2ccc(F)cc2)CC1
Return: 56.9

* * *

assay.protocol: Pharmacokinetics in rats after oral administration of Compound 99
Type: in vivo, Sprague-Dawley rat
test.parameters: Sprague-Dawley, rat; plasma analyte after 1.25 mg/kg oral dose of Compound 99, male rats
result.type: Cmax at 3.33 h (ng/mL)
The reply should be a number in ng/mL, with the unit left off.

Enquiry: // Input: O=C(COC[C@H]1CC[C@H](COC(=O)N(c2ccccc2)c2ccc(Cl)cc2)CC1)NCCS(=O)(=O)O [Compound 99] . Output its Cmax at 3.33 h only.
Return: 1.93

* * *

assay.protocol: Pharmacokinetics in rats after oral administration of Compound 99
Assay type: in vivo, Sprague-Dawley rat
test.parameters: male, Sprague-Dawley, rat, plasma, 10 mg/kg; after oral dose of the taurine conjugate of Compound 22
result.type: Tmax (h)
Give the value, in units of h, as a plain number.

Enquiry: Input O=C(COC[C@H]1CC[C@H](COC(=O)N(c2ccccc2)c2ccc(Cl)cc2)CC1)NCCS(=O)(=O)O [Compound 99] , output reported Tmax.
Return: 3

* * *

System: human PRP
assay.protocol: Human platelet aggregation inhibition test
Format: cell-based
test.parameters: ADP (1×10^−5 M) induced aggregation
Field: pIC50. Provide a value for each of the molecules that follow.
Bear in mind: pIC50 is minus log10 of a mol/L concentration; give just that figure.

Enquiry: Report its pIC50 with human PRP as the test system: Cc1ccc(N(C(=O)OC[C@H]2CC[C@H](COCC(=O)O)CC2)c2ccccc2)s1
Return: 7.90

Enquiry: Give human PRP pIC50 for the following molecule: O=C(O)COC[C@H]1CC[C@H](CNC(=O)N(c2ccccc2)c2ccccc2)CC1
Return: 7.14

Enquiry: Answer briefly: pIC50 recorded on human PRP for O=C(O)COC[C@H]1CC[C@@H](COC(=O)N(c2ccccc2)c2cccc(Cl)c2)CC1
Return: 6.68

Enquiry: Recall the reported pIC50 of CCOc1ccc(N(C(=O)OC[C@H]2CC[C@H](COCC(=O)O)CC2)c2ccccc2)cc1 on human PRP and write it down.
Return: 7.15

* * *

assay.protocol: Pharmacokinetics in rats after oral administration of Compound 99
Type: in vivo, Sprague-Dawley rat
test.parameters: Sprague-Dawley, rat; plasma analyte after 1.25 mg/kg oral dose of Compound 99, male rats; read-out: terminal phase half-life (T1/2) (converted)
Answer each item with its documented half-life.
Numeric answer only, unit h assumed.

Enquiry: Report half-life for O=C(COC[C@H]1CC[C@H](COC(=O)N(c2ccccc2)c2ccc(Cl)cc2)CC1)NCCS(=O)(=O)O
Return: 3.24

Enquiry: // fetch half-life given entry O=C(O)COC[C@H]1CC[C@H](COC(=O)N(c2ccccc2)c2ccc(Cl)cc2)CC1
Return: 3.51
